- RUN DESCRIPTION: Components of the Cytosolic LPS Sensing Pathway: Gene Identification via Genome-wide siRNA Screen
- STATED CONDITIONS: RAW264.7 macrophages, IL-1a HTRF, actives lie on both sides, screened at 100 nM (by protocol), cells primed 5 h with Pam3CSK4 first
- Description: Non-canonical inflammasome activation by cytosolic LPS is a critical component of the host response to Gram-negative bacterial infection, however we lack a comprehensive understanding of the cellular processes that control this pathway. […] Lipofectamine RNAiMAX Transfection Reagent ([…]; Invitrogen) was added in […] serum-free, antibiotic-free media to plate wells using a Thermo Scientific Matrix WellMate and Microplate Stacker. […] The plates were read on an EnVision plate reader (PerkinElmer). […]
The whole screen tested about 53,000 sequences, of which about 3,700 (7%) were called active.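 Rule for the calls: active = gene knockdowns whose robust z-score for IL-1 alpha signal is at least 2 or at most -2, so actives lie on both sides; inactive = the rest.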 Shown is part of a subset that was picked to be rich in actives.
One label from this list, please: active, inactive

Enquiry: Any idea what this test logged for GGAGAAGAUGAUUAAGACCTT against Anp32b ?
Return: inactive

Enquiry: Any idea what this test logged for GGACCAAGGAAUAUUUCCCTT against Serpinb9b ?
Return: inactive

Enquiry: Any idea what this test logged for GGAUUUUGCUCAGACGACATT against Taf1a ?
Return: inactive

Enquiry: Any idea what this test logged for CCUCCUGUACGAACACGCATT against Sars2 ?
Return: inactive

Enquiry: Any idea what this test logged for GCCGGAAGAAACUCAUGCUTT against Mad2l1bp ?
Return: inactive

Enquiry: Any idea what this test logged for GCCACAGGCCAAGAUCAUUTT against Pafah1b2 ?
Return: inactive

Next:
Enquiry: Any idea what this test logged for GAACGACAACCCGAUAAUGTT against Ttc9c ?
Return: inactive

Enquiry: Any idea what this test logged for GCUCGAACAUAGCAGCAAGTT against BC061195 ?
Return: active

Enquiry: Any idea what this test logged for GGCGGUAACCACUUUCACGTT against Mycn ?
Return: inactive

Enquiry: Any idea what this test logged for GGUCCUUGUACAACCACCCTT against Acd ?
Return: inactive

Enquiry: Any idea what this test logged for GGAAUAGAAGCACUGUGUGTT against Brs3 ?
Return: inactive

Enquiry: Any idea what this test logged for CCCGGAGAGUCAUUUGUGUTT against Cpsf4 ?
Return: inactive

Enquiry: Any idea what this test logged for CCAAACAACCAGCUAAUAUTT against Mia3 ?
Return: inactive

Enquiry: Any idea what this test logged for GGUCAAUGCUACUAAUGAATT against Ankrd61 ?
Return: inactive

Enquiry: Any idea what this test logged for CGGUGCACAACGUACCAAUTT against Srxn1 ?
Return: inactive

Enquiry: Any idea what this test logged for GGUGGAGUUUCUCAAAAGCTT against Kcnc3 ?
Return: inactive

Enquiry: Any idea what this test logged for CGUGUCAUACAGGUGUGGUTT against Lhx8 ?
Return: active

Enquiry: Any idea what this test logged for GGGAAAAAGGAGAACUUCUTT against Cfap161 ?
Return: inactive

Enquiry: Any idea what this test logged for GGUAUAUGGAACCAUGGGATT against Psmb9 ?
Return: inactive

Enquiry: Any idea what this test logged for CCUCAAACCAUCAACAACCTT against Six3 ?
Return: active

Enquiry: Any idea what this test logged for GGGACGUGUUAAAAAGGGCTT against Cldn5 ?
Return: inactive
